- Target Under Test: gt1b NS3 (Hepatitis C virus genotype 1b strain N, UniProt Q9WPH5 1028-1658)
- Method: filter binding; 3 mM Mg2+; legend names NS3-4A; 25 mM MOPS-NH4+ pH 6.5, 3 mM MgCl2, 30 mM NaCl, 1% glycerol, 2 mM DTT, 0.1% Triton X-100; filter binding 37 C, 0.5 nM RNA, Hill fit; stopped flow 25 C
- Condition: protein: recombinant; tags: His6-SUMO removed (native N terminus); label: 5'-32P
Experimental Readout: Kd (nM)
Write the number in nM without appending the unit.

Quick one: Kd for CUGUGGCAUGUCCUAGCGUCGUAUCGAUCUGGUC (ssRNA) [ssT34] ?
7.56

Provenance of the data: paper PMC5730761
